- target or system: Insulin-like growth factor 1 receptor (Homo sapiens, UniProt P08069)
- Sequence (P08069 31-736 limits assumed): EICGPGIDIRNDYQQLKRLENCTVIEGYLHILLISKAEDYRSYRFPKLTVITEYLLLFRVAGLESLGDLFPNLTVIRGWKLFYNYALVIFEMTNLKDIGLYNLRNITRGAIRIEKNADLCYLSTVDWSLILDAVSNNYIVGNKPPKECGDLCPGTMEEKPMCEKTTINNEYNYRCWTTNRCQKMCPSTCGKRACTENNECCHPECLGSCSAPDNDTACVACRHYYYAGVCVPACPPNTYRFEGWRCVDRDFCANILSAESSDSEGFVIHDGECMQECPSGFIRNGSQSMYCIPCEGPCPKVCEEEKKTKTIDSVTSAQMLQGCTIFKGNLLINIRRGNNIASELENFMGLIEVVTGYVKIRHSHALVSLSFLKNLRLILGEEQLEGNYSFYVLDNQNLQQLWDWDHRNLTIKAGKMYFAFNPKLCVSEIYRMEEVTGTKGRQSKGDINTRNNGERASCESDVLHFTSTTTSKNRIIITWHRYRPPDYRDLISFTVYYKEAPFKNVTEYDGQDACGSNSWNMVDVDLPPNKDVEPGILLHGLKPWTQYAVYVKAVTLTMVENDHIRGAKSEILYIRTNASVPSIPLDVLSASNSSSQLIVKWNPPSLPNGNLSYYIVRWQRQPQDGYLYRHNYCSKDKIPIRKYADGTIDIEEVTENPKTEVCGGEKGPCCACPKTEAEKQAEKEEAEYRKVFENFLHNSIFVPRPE
- Sequence (P08069 741-1367 limits assumed): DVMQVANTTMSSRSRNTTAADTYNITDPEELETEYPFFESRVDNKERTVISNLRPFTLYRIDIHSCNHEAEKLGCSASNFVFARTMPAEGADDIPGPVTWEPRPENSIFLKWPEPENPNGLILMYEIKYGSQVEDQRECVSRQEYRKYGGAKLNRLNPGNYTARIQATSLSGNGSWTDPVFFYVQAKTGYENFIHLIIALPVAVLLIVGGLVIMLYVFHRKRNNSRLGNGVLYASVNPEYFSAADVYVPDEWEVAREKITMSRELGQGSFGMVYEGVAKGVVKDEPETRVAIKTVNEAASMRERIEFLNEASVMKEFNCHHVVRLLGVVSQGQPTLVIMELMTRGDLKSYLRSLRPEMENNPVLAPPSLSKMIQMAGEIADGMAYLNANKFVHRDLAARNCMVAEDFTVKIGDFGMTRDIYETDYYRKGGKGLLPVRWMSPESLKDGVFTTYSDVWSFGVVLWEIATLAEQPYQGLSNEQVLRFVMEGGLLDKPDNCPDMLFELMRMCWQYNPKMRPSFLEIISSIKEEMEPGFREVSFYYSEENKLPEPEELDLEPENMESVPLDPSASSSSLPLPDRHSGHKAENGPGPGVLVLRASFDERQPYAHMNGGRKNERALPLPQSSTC
- protocol notes: Inhibition of human IGF1R expressed in SUM149 cells
- Type: cell-based, SUM149PT
test readout: IC50

get_value(item= `Cc1ccsc1C(=O)Nc1cc(CN2CCN(C(=O)CO)CC2)ccc1/C=C/c1n[nH]c2ccccc12` , readout=IC50) returns < 2 nM

* * *

- target or system: Insulin-like growth factor 1 receptor (Homo sapiens)
- protocol notes: Inhibition of human IGF1R expressed in MDA-MB-468 cells
- Type: cell-based
pIC50: −log10 of the molar value.
test readout: pIC50

get_value(item= Cc1ccsc1C(=O)Nc1cc(CN2CCN(C(=O)CO)CC2)ccc1/C=C/c1n[nH]c2ccccc12 [KW-2450] , readout=pIC50) returns > 8.70

* * *

- System: SUM-159-PT
- protocol notes: Anticancer activity against human SUM159 cells assessed as cell growth inhibition incubated for 5 days by sulforhodamine B staining based assay
- Format: functional
- stated conditions: 120 h
test readout: pIC50
When answering, recall that pIC50 equals minus log10 of the concentration in mol/L, and write that number alone.

get_value(item= `CCNc1cc(O)c2c(c1)/C=C/C[C@H](O)[C@H](O)C(=O)/C=C\[C@@H](C)[C@H](C)OC2=O` , readout=pIC50) returns 5.63

* * *

I'd be grateful if you could share measured log10(IC50) for these entries.
- System: MDA-MB-436
- protocol notes: Anticancer activity against human MDA-MB-436 cells assessed as cell growth inhibition incubated for 24 hrs by MTT assay
- Assay type: functional, cell-based
- stated conditions: MDA-MB-436, 24 h
All values: log10 IC50 [µM].

get_value(item= `C=C1C(=O)O[C@]2(C)CC[C@H](CBr)[C@]12O` , readout=log10(IC50)) returns 1.07

get_value(item= `CN(C)CC/C=C1\c2ccccc2COc2ccc(CC(=O)NN)cc21` , readout=log10(IC50)) returns 0.70

get_value(item= `C=C1C(=O)O[C@]2(C)CC[C@H](CBr)[C@]12OC` , readout=log10(IC50)) returns 0.94

get_value(item= CNCCC(Oc1ccc(C(F)(F)F)cc1)c1ccccc1 (stereo unspecified) , readout=log10(IC50)) returns -0.30

get_value(item= `N[C@@H](C(=O)N[C@@H]1C(=O)N2C(C(=O)O)=C(CSc3c[nH]nn3)CS[C@H]12)c1ccc(O)cc1` , readout=log10(IC50)) returns 1.48

get_value(item= `Cc1nc(NCc2ccccc2F)ncc1C(=O)NCc1cccs1` , readout=log10(IC50)) returns 0.90

* * *

- System: HCC70
- protocol notes: Anticancer activity against human HCC70 cells assessed as cell growth inhibition incubated for 5 days by sulforhodamine B staining based assay
- Format: functional
- stated conditions: HCC70, 120 h
test readout: IC50
Write down the value, and be sure its unit follows.

get_value(item= CCNc1cc(O)c2c(c1)/C=C/C[C@H](O)[C@H](O)C(=O)/C=C\[C@@H](C)[C@H](C)OC2=O [E-6201] , readout=IC50) returns 8.79 µM

* * *

- target or system: Aurora kinase A (Homo sapiens, UniProt O14965)
- Sequence (O14965 whole entry): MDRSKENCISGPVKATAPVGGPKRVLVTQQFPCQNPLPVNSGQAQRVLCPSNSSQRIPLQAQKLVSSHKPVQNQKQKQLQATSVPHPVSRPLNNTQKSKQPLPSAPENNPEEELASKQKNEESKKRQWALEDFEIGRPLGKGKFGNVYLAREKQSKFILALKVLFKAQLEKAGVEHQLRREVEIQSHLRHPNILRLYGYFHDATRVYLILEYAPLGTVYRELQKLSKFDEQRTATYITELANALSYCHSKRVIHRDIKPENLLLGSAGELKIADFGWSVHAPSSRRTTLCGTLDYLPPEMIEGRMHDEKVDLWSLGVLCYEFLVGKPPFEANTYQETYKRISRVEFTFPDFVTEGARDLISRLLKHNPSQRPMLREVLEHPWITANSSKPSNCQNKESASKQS
- protocol notes: Inhibition of human Aurora A kinase expressed in MDA-MB-468 cells
test readout: IC50 (µM)
Numeric only. Scale: µM

IC50 of `Cc1ccsc1C(=O)Nc1cc(CN2CCN(C(=O)CO)CC2)ccc1/C=C/c1n[nH]c2ccccc12` , assay on Aurora kinase A (Homo sapiens, UniProt O14965), is 0.215

* * *

- Test system: Hs-578T
- protocol notes: Anticancer activity against human Hs-578T cells assessed as cell growth inhibition incubated for 72 hrs by CCK-8 assay
- Assay type: functional, cell-based
test readout: IC50
Write down the value, and be sure its unit follows.

get_value(item= CO[C@H]1/C=C\C=C(/C)C(=O)NC2=CC(=O)C(NCCN(C)C)=C(C[C@@H](C)C[C@H](OC)[C@H](O)[C@@H](C)/C=C(\C)[C@@H]1OC(N)=O)C2=O [ALVESPIMYCIN] , readout=IC50) returns 8.4 nM

* * *

- Test system: HCC1937
- protocol notes: Anticancer activity against human HCC1937 cells assessed as cell growth inhibition by MTT assay
- Assay type: functional, cell-based
test readout: pIC50
When answering, recall that pIC50 equals minus log10 of the concentration in mol/L, and write that number alone.

pIC50 of `Cc1cc(C=C2C(=O)C=CC2=O)cc(C)c1O` , assay on HCC1937, is 4.29

* * *

- protocol notes: Inhibition of cIAP1 (unknown origin)
- Design: species or system Homo sapiens
test readout: pIC50
When answering, recall that pIC50 equals minus log10 of the concentration in mol/L, and write that number alone.

get_value(item= `CN[C@@H](C)C(=O)N[C@H](C(=O)N1CCC[C@H]1c1nc(C(=O)c2ccc(F)cc2)cs1)C1CCCCC1` , readout=pIC50) returns 9.40

* * *

- Tested on: MDA-MB-231
- protocol notes: cells
- stated conditions: Homo sapiens, MDA-MB-231, 24 h
test readout: pIC50
When answering, recall that pIC50 equals minus log10 of the concentration in mol/L, and write that number alone.

pIC50 of `Nc1ccccc1NC(=O)c1ccc(CNC(=O)OCc2cccnc2)cc1` , assay on MDA-MB-231, is 6.00

* * *

- target or system: Dual specificity mitogen-activated protein kinase kinase 1 (Homo sapiens)
- Sequence (Q02750 whole entry): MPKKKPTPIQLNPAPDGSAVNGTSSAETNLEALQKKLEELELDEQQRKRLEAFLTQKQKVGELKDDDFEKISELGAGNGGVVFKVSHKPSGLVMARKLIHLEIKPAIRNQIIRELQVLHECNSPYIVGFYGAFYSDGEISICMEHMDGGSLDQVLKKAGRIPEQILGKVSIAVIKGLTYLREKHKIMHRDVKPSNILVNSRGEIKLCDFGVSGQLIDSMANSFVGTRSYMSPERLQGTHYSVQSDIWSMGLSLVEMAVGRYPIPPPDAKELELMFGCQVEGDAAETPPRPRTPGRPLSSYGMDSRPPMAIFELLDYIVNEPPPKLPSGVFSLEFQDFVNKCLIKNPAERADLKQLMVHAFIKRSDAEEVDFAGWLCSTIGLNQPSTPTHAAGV
- protocol notes: Inhibition of MEK1 (unknown origin)
test readout: IC50 (µM)
Numeric only. Scale: µM

IC50 of O=C(c1ccc(F)c(F)c1Nc1ccc(I)cc1F)N1CC(O)([C@@H]2CCCCN2)C1 [COBIMETINIB] , assay on Dual specificity mitogen-activated protein kinase kinase 1 (Homo sapiens), is 4.2

* * *

- Test system: HCC1806
- protocol notes: Anticancer activity against human HCC1806 cells assessed as cell growth inhibition incubated for 72 hrs by CellTiter-Blue assay
- Assay type: functional, cell-based
- stated conditions: HCC1806, 72 h
test readout: IC50 (nM)
Numeric only. Scale: nM

get_value(item= `O=C(Cc1cccc(OC(F)(F)F)c1)Nc1ccc(CCCCc2nnc(NC(=O)Cc3ccccn3)s2)nn1` , readout=IC50) returns 100

* * *

Sequence of the target: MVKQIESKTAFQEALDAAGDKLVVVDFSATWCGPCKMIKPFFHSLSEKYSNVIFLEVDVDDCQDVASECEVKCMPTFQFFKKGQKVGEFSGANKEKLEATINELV
test readout: pIC50
When answering, recall that pIC50 equals minus log10 of the concentration in mol/L, and write that number alone.

get_value(item= `Fc1ccc(-c2ccc(Nc3nc(Cl)nc(Cl)n3)cc2)cc1` , readout=pIC50) returns 5.00

* * *

- Test system: MDA-MB-231
- protocol notes: Anticancer activity against human MDA-MB-231 cells assessed as cell growth inhibition incubated for 72 hrs by CCK-8 assay
- Assay type: functional, cell-based
- stated conditions: MDA-MB-231, 72 h
test readout: IC50 (µM)
Numeric only. Scale: µM

get_value(item= `CO[C@H]1/C=C\C=C(/C)C(=O)NC2=CC(=O)C(NCCN(C)C)=C(C[C@@H](C)C[C@H](OC)[C@H](O)[C@@H](C)/C=C(\C)[C@@H]1OC(N)=O)C2=O` , readout=IC50) returns 45.7

* * *

- target or system: Aurora kinase B (Homo sapiens)
- Sequence (Q96GD4 whole entry): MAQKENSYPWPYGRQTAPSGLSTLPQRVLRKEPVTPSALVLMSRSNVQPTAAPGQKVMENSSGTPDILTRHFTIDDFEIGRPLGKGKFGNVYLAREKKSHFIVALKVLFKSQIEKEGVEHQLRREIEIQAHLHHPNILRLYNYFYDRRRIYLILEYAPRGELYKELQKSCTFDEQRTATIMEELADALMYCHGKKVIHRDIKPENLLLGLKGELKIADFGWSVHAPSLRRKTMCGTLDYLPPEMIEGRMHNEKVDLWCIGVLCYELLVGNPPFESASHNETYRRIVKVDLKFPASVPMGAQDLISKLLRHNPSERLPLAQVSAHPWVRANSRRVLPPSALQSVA
- protocol notes: Inhibition of human Aurora B kinase expressed in MDA-MB-231 cells
- Type: cell-based
test readout: IC50 (nM)
Numeric only. Scale: nM

IC50 of Cc1ccsc1C(=O)Nc1cc(CN2CCN(C(=O)CO)CC2)ccc1/C=C/c1n[nH]c2ccccc12 [KW-2450] , assay on Aurora kinase B (Homo sapiens), is 66

* * *

- target or system: Aurora kinase B (Homo sapiens)
- protocol notes: Inhibition of human Aurora B kinase expressed in MDA-MB-468 cells
- Assay type: cell-based
test readout: pIC50
When answering, recall that pIC50 equals minus log10 of the concentration in mol/L, and write that number alone.

get_value(item= `Cc1ccsc1C(=O)Nc1cc(CN2CCN(C(=O)CO)CC2)ccc1/C=C/c1n[nH]c2ccccc12` , readout=pIC50) returns 6.32
